# System: PLpro (Severe acute respiratory syndrome coronavirus 2)
# Protocol text: Time dependent PLpro inhibition assay (pre-incubation)
# Format: biochemical, SARS-CoV-2
# Run conditions: 3 hour pre-incubation with PLpro; read-out: IC50 of PLpro inhibition after 3 hour pre-incubation
Measured endpoint: pIC50
API: returns pIC50 as number; meaning -log10 of concentration in mol/L.

q: Field request: pIC50 | item: CCCSc1nc2sc3c(c2c(=O)n1CC)CCc1ccccc1-3 [Compound 5]
a: 6.05

* * *

# System: PLpro (Severe acute respiratory syndrome coronavirus 2, UniProt P0DTD1)
# Protocol text: Surface plasmon resonance with immobilized His-tagged PLpro
# Type: binding, SARS-CoV-2
# Run conditions: SPR, His-tagged PLpro on Ni-NTA chip; read-out: binding constant KD
Measured endpoint: pKd
API: returns pKd as number; meaning -log10 of concentration in mol/L.

q: Field request: pKd | item: CCCSc1nc2sc3c(c2c(=O)n1CC)CCc1ccccc1-3
a: 4.68
